assay: Plasma pharmacokinetics after an oral dose of Example 2 in SD rats; format: in vivo, Sprague Dawley rats; settings: male, Sprague Dawley, rat, plasma, po, 5 mg/kg, Example 68 in plasma, PO dose of Example 2 5 mg/kg, mean n=3, read-out: Tmax
assay_metric: Tmax (min)
Quick reminder: number only, in min, skip the unit.

**Q:** For "NC(=O)c1ccc(-c2ccc(-c3nn[nH]c3C(=O)O)cc2)cc1" , write its Tmax.
**A:** 25.2

* * *

assay: Plasma pharmacokinetics after an oral dose of Example 2 in SD rats; format: in vivo, Sprague Dawley rats; conditions: male, Sprague Dawley, rat, plasma, po, 5 mg/kg, Example 2 in plasma, PO Example 2 5 mg/kg, individual rats
assay_metric: Cmax

**Q:** For CCOC(=O)c1[nH]nnc1-c1ccc(-c2ccc(C(N)=O)cc2)cc1 [Example 2] , write its Cmax.
**A:** 2540 nM

* * *

assay: Plasma pharmacokinetics after an oral dose of Example 2 in SD rats; format: in vivo, Sprague Dawley rats; conditions: male, Sprague Dawley, rat, plasma, po, 5 mg/kg, Example 68 in plasma, PO dose of Example 2 5 mg/kg, individual rats, read-out: AUC0-24 h
assay_metric: AUC(0-t) (µM·h)
Quick reminder: number only, in µM·h, skip the unit.

**Q:** For NC(=O)c1ccc(-c2ccc(-c3nn[nH]c3C(=O)O)cc2)cc1 [Example 68] , write its AUC(0-t).
**A:** 3.15

* * *

test: Plasma pharmacokinetics after an oral dose of Example 2 in SD rats; assay type: in vivo, Sprague Dawley rats; conditions: male, Sprague Dawley, rat, plasma, po, 5 mg/kg, Example 68 in plasma, PO dose of Example 2 5 mg/kg, mean n=3, read-out: AUC0-24 h
assay_metric: AUC(0-t) (µM·h)
Quick reminder: number only, in µM·h, skip the unit.

**Q:** For NC(=O)c1ccc(-c2ccc(-c3nn[nH]c3C(=O)O)cc2)cc1 [Example 68] , write its AUC(0-t).
**A:** 3.14

* * *

test: Plasma pharmacokinetics of Example 68 after IV infusion or PO dose in SD rats; type: in vivo; conditions: Sprague-Dawley (SD), rat, plasma, po, 5 mg/kg, PO dose 5 mg/kg, mean n=3, read-out: F (oral bioavailability)
assay_metric: bioavailability (%)
Quick reminder: number only, in %, skip the unit.

**Q:** For "NC(=O)c1ccc(-c2ccc(-c3nn[nH]c3C(=O)O)cc2)cc1" , write its bioavailability.
**A:** 2.3

* * *

assay: Plasma pharmacokinetics after an oral dose of Example 2 in SD rats; format: in vivo, Sprague Dawley rats; conditions: male, Sprague Dawley, rat, plasma, po, 5 mg/kg, Example 2 in plasma, PO Example 2 5 mg/kg, mean n=3
assay_metric: Cmax (nM)
Quick reminder: number only, in nM, skip the unit.

**Q:** For CCOC(=O)c1[nH]nnc1-c1ccc(-c2ccc(C(N)=O)cc2)cc1 [Example 2] , write its Cmax.
**A:** 2390

* * *

experiment: Plasma pharmacokinetics after an oral dose of Example 2 in SD rats; format: in vivo, Sprague Dawley rats; conditions: male, Sprague Dawley, rat, plasma, po, 5 mg/kg, Example 2 in plasma, PO Example 2 5 mg/kg, mean n=3, read-out: AUC0-24 h
assay_metric: AUC(0-t) (µM·h)
Quick reminder: number only, in µM·h, skip the unit.

**Q:** For "CCOC(=O)c1[nH]nnc1-c1ccc(-c2ccc(C(N)=O)cc2)cc1" , write its AUC(0-t).
**A:** 1.56

* * *

molecular target: Glycolate oxidase (GO) (Homo sapiens (Human))
Sequence (Q9UJM8 whole entry): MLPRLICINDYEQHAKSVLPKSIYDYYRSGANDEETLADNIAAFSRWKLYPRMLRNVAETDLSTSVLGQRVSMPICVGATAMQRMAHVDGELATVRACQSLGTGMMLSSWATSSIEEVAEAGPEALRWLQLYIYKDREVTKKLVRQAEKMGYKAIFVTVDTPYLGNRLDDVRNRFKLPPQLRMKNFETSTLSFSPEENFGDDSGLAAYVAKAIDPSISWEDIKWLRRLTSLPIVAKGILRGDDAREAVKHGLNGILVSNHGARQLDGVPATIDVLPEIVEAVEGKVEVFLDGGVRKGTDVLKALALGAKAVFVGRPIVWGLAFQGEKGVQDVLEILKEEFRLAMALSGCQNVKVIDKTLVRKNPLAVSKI
Recorded IC50 determines the label; the label ranges are small value: < 20 nM; mid value: ≥ 20 nM and < 200 nM; large value: ≥ 200 nM

Answered cases to consult:
chemical_string | label
O=C(O)c1[nH]nnc1-c1ccc(-c2ccc(-c3nc4ccccc4s3)cc2)cc1 | small value
O=C(O)c1c[nH]nc1-c1ccc(F)c(Cl)c1 | large value
O=C(O)c1[nH]nnc1-c1ccc(-c2ccc(Cl)c(S(=O)(=O)N3CCOCC3)c2)cc1 | mid value
O=C(O)c1[nH]nnc1-c1ccc(-c2ccc(OC(F)(F)F)cc2)cc1 | large value
O=C(O)c1[nH]nnc1-c1ccc(-c2ccc(S(=O)(=O)N3CCCCC3)cc2)cc1 | large value
O=C(O)c1[nH]nnc1-c1ccc(-c2cccc(S(=O)(=O)N3CCOCC3)c2)cc1 | small value
O=C(O)c1[nH]nnc1-c1ccc(-c2cccc(-c3ccccc3)c2)cc1 | large value
O=C(O)c1[nH]nnc1C#Cc1ccc(Cl)cc1 | large value
O=C(O)c1[nH]cnc1-c1ccc(F)c(Cl)c1 | large value
O=C(O)c1[nH]nnc1-c1ccc(-c2ccc(-c3cn[nH]c3)cc2)cc1 | small value

**Q:** Which class holds "CCOC(=O)c1[nH]nnc1-c1ccc(-c2ccc(Cl)cc2)cc1" ?
**A:** large value

**Q:** Which class holds "Cn1nnc(C(=O)O)c1-c1ccc(F)c(Cl)c1" ?
**A:** large value

**Q:** Which class holds "O=C(O)c1[nH]nnc1-c1ccc(-c2ccc(-c3ccncc3)cc2)cc1" ?
**A:** mid value

**Q:** Which class holds "O=C(O)c1[nH]ncc1-c1ccc2c(c1)C(F)(F)c1cc(-c3c[nH]nn3)ccc1-2" ?
**A:** small value

**Q:** Which class holds "NS(=O)(=O)c1ccc(-c2ccc(-c3nn[nH]c3C(=O)O)cc2)cc1" ?
**A:** mid value

**Q:** Which class holds "Cc1[nH]nnc1-c1ccc(-c2ccc(-c3nn[nH]c3C(=O)O)cc2)cc1" ?
**A:** small value

* * *

assay: Plasma pharmacokinetics after an oral dose of Example 2 in SD rats; type: in vivo, Sprague Dawley rats; conditions: male, Sprague Dawley, rat, plasma, oral, 5 mg/kg, Example 68 after PO Example 2 5 mg/kg, based on IV exposure of Example 68 at 1.0 mg/kg, mean n=3, read-out: F (bioavailability)
assay_metric: bioavailability (%)
Quick reminder: number only, in %, skip the unit.

**Q:** For NC(=O)c1ccc(-c2ccc(-c3nn[nH]c3C(=O)O)cc2)cc1 [Example 68] , write its bioavailability.
**A:** 19

* * *

assay: Plasma pharmacokinetics of Example 68 after IV infusion or PO dose in SD rats; assay type: in vivo; conditions: Sprague-Dawley (SD), rat, plasma, iv, 1 mg/kg, 30-minute IV infusion 1 mg/kg, individual rats, read-out: MRT (mean residence time)
assay_metric: MRT (min)
Quick reminder: number only, in min, skip the unit.

**Q:** For "NC(=O)c1ccc(-c2ccc(-c3nn[nH]c3C(=O)O)cc2)cc1" , write its MRT.
**A:** 28.2

* * *

biological target: Glycolate oxidase (GO) (Homo sapiens (Human)); assay: GO biochemical assay (Amplex Red, 384-well)
assay_metric: IC50 (nM)
Quick reminder: number only, in nM, skip the unit.

**Q:** Specify the recorded IC50 for "CC(C)(C)c1ccc(-c2ccc(-c3nn[nH]c3C(=O)O)cc2)cc1" , system: Glycolate oxidase (GO) (Homo sapiens (Human)).
**A:** 4300

* * *

assay: Plasma pharmacokinetics after an oral dose of Example 2 in SD rats; format: in vivo, Sprague Dawley rats; conditions: male, Sprague Dawley, rat, plasma, po, 5 mg/kg, Example 2 in plasma, PO Example 2 5 mg/kg, mean n=3, read-out: Tmax
assay_metric: Tmax

**Q:** For "CCOC(=O)c1[nH]nnc1-c1ccc(-c2ccc(C(N)=O)cc2)cc1" , write its Tmax.
**A:** 19.8 min

* * *

test: Plasma pharmacokinetics of Example 68 after IV infusion or PO dose in SD rats; assay type: in vivo; conditions: SD, rat, plasma, po, 5 mg/kg, PO dose 5 mg/kg, mean n=3
assay_metric: Cmax (nM)
Quick reminder: number only, in nM, skip the unit.

**Q:** For "NC(=O)c1ccc(-c2ccc(-c3nn[nH]c3C(=O)O)cc2)cc1" , write its Cmax.
**A:** 113

* * *

experiment: Plasma pharmacokinetics of Example 68 after IV infusion or PO dose in SD rats; assay type: in vivo; conditions: Sprague-Dawley (SD), rat, plasma, po, 5 mg/kg, PO dose 5 mg/kg, individual rats, read-out: F (oral bioavailability)
assay_metric: bioavailability (%)
Quick reminder: number only, in %, skip the unit.

**Q:** For "NC(=O)c1ccc(-c2ccc(-c3nn[nH]c3C(=O)O)cc2)cc1" , write its bioavailability.
**A:** 2.5

* * *

biological target: Glycolate oxidase (GO) (Homo sapiens (Human))
Response field label: string, one of satisfied (IC50 strictly below 100 nM) or not satisfied.

Answered cases to consult:
chemical_string | label
O=C(O)c1[nH]ncc1-c1ccccn1 | not satisfied
O=C(O)c1[nH]nnc1-c1cccc(Cl)c1F | not satisfied
O=C(O)c1[nH]nnc1-c1ccc(-c2ccc(-c3cnn[nH]3)cc2)cc1 | satisfied
O=C(O)c1c[nH]nc1-c1cc(Cl)cc(Cl)c1 | not satisfied

**Q:** Does "Cc1ccc(-c2nn[nH]c2C(=O)O)cc1" have IC50 strictly under 100 nM?
**A:** not satisfied

**Q:** Does "Cc1ccccc1-c1nn[nH]c1C(=O)O" have IC50 strictly under 100 nM?
**A:** not satisfied

**Q:** Does "O=C(O)c1[nH]nnc1-c1cccc(F)c1" have IC50 strictly under 100 nM?
**A:** not satisfied

**Q:** Does "Cc1ccc(-c2ccc(-c3nn[nH]c3C(=O)O)cc2)cc1" have IC50 strictly under 100 nM?
**A:** not satisfied

**Q:** Does "Cc1cnc(-c2ccc(-c3ccc(-c4nn[nH]c4C(=O)O)cc3)cc2)s1" have IC50 strictly under 100 nM?
**A:** satisfied

# credit: patent US20240091200A1
